# tested_target: CFTR ΔF508 mutant (Homo sapiens, UniProt P13569, DEL508-508)
# Sequence (P13569 with tags, fused parts or gaps DEL508-508): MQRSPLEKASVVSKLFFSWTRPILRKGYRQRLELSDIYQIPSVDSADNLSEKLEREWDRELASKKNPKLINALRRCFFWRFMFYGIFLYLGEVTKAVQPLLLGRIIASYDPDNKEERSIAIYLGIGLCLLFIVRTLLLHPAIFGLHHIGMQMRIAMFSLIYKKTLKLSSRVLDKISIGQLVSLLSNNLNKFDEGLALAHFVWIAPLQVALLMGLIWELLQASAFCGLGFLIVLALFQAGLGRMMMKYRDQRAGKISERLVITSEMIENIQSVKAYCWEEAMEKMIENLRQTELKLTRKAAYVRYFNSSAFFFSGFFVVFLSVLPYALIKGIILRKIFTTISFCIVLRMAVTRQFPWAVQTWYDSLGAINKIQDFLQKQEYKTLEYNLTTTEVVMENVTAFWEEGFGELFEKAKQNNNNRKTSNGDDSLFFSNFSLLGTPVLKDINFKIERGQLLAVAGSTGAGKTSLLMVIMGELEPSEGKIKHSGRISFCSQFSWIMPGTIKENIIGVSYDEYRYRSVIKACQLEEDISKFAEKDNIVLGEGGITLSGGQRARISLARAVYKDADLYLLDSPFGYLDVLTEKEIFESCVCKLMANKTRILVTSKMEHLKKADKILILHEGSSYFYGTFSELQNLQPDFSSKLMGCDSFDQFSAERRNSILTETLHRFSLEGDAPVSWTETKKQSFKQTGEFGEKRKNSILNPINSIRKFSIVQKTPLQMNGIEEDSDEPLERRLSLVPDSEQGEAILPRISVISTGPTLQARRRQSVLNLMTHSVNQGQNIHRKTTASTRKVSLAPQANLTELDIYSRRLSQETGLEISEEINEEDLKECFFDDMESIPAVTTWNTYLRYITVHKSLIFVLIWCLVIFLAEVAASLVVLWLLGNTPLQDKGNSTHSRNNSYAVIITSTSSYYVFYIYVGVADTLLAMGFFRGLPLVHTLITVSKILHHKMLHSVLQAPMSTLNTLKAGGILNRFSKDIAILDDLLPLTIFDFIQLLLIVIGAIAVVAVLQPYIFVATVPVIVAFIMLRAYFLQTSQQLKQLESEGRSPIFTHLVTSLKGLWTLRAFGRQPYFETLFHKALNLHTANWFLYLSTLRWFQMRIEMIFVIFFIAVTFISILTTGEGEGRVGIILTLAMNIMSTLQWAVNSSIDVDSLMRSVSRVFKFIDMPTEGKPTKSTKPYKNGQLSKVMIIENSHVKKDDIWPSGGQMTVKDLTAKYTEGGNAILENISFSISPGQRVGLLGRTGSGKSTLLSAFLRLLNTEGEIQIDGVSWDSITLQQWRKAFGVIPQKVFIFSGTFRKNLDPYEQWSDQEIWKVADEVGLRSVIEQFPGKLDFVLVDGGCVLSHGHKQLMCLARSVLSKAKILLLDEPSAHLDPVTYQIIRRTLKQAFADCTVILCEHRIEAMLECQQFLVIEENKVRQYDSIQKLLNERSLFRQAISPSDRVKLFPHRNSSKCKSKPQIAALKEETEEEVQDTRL
# assay_comment: YFP-halide influx assay for the CFTR-ΔF508 mutation (CFBE41o- cells)
# condition_details: forskolin 10.67 μM, from (1−F/F0) vs concentration plot
# Description: The YFP halide influx assay measured the functionality of the cystic fibrosis Transmembrane Conductance regulator (CFTR) channels in the cystic fibrosis bronchial epithelium cell line CFBE41o-. The assay was used to evaluate the capacity of compounds to increase the open probability of existing CFTR channels in the membrane. […] The I-induced quenching of fluorescence was recorded on an immediately after injection of iodide for 2 minutes on an FDSS/μCell (Hamamatsu). […]
parameter: EC50 (nM)

INSERT INTO assay_data (molecule, value_observed) VALUES
  ('CC(C)(O)CNC(=O)c1ncc(S(=O)(=O)c2ccc(C(F)(F)F)cc2)cc1N [Compound 11]', 21.7),
  ('Nc1cc(S(=O)(=O)c2ccc(OC(F)(F)F)cc2)cnc1C(=O)N1CC2(CCCOC2)C1 [Compound 121]', 113);

(I) CC(C)OCC(O)CNC(=O)c1ncc(S(=O)(=O)c2ccc(OC(F)(F)F)cc2)cc1N (stereo not shown) [Compound 90]
(II) CC(C)OC[C@H](O)CNC(=O)c1ncc(S(=O)(=O)c2ccc(C(F)(F)F)cc2)cc1N [Compound 252]
Inquiry: Which shows the larger EC50 value: I or II ? Answer by stating the label of the chosen item.
Reply text: I
(I: 4 nM, II: 2.5 nM)

(I) Nc1cc(S(=O)(=O)c2ccc(C(F)(F)F)cc2)cnc1C(=O)N1CC(OC(F)F)C1 [Compound 158]
(II) Nc1cc(S(=O)(=O)c2ccc(C(F)(F)F)cc2)cnc1C(=O)NCC(O)COCC1CC1 (stereo not shown) [Compound 131]
Inquiry: Between I and II , which one shows the smaller EC50 number? Answer by stating the label of the chosen item.
Reply text: II
(II: 12.8 nM, I: 31.6 nM)

(1) Nc1cc(S(=O)(=O)c2ccc(OC(F)(F)F)cc2)cnc1C(=O)N1CC[C@H](F)C1 [Compound 206]
(2) Nc1cc(S(=O)(=O)N2CCC(OC(F)(F)F)CC2)cnc1C(=O)NCC(O)C(F)(F)F (stereo not shown) [Compound 198]
(3) CC(C)(O)CNC(=O)c1ncc(S(=O)(=O)c2cccc(F)c2)cc1N [Compound 39]
Inquiry: Put the items in sequence by EC50, from largest down. Give me the labels in the order the question wants.
Reply text: 3, 1, 2

---

# tested_target: CFTR-S549N (Homo sapiens, UniProt P13569, S549N)
# Sequence (P13569 whole entry S549N): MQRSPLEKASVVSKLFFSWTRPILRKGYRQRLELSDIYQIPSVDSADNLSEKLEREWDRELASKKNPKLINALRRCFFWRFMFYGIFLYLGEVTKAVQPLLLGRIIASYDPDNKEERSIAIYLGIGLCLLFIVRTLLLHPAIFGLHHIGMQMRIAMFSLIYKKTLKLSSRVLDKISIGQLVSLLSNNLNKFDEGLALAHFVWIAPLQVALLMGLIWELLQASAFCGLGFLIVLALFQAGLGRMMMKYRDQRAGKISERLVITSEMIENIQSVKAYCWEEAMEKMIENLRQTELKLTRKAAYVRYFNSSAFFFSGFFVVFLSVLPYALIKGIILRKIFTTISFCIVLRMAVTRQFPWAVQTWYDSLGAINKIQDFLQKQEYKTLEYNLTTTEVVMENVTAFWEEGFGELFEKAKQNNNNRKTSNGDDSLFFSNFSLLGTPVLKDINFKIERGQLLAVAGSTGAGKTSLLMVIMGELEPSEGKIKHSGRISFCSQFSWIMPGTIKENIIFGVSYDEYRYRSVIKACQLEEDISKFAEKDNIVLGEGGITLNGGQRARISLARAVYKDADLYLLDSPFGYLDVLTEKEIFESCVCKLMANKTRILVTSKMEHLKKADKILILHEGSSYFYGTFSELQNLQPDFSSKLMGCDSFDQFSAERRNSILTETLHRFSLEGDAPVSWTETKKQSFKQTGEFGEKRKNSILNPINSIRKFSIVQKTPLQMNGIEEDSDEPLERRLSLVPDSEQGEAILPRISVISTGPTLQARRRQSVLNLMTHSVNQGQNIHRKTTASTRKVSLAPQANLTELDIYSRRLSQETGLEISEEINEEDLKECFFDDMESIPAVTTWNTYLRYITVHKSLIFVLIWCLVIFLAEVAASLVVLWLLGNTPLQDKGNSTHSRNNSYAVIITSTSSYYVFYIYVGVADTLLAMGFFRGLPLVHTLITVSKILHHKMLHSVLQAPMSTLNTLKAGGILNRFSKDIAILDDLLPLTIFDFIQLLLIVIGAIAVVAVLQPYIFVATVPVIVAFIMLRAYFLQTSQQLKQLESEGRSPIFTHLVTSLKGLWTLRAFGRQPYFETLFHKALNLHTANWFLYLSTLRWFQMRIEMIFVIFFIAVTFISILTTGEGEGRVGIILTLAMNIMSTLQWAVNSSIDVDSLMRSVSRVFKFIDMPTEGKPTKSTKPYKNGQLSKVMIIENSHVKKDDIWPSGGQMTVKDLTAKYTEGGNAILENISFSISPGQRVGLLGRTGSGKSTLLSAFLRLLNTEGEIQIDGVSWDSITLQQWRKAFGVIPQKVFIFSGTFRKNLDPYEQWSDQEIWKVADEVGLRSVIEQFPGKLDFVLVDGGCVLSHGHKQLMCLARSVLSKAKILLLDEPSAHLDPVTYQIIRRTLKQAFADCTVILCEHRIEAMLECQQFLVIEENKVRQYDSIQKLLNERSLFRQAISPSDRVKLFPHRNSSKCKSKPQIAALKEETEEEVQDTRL
# assay_comment: YFP-halide influx assay for the CFTR-S549N
pEC50: −log10 of the molar value.
parameter: pEC50

INSERT INTO assay_data (compound, tested_target, value_observed) VALUES
  ('Nc1cc(S(=O)(=O)c2ccccc2OC(F)(F)F)cnc1C(=O)NCCO', 'CFTR-S549N (Homo sapiens, UniProt P13569, S549N)', 6.60),
  ('Nc1cc(S(=O)(=O)c2ccc(OC(F)(F)F)cc2)cnc1C(=O)N1CC(O)C1', 'CFTR-S549N (Homo sapiens, UniProt P13569, S549N)', 6.15),
  ('Nc1cc(S(=O)(=O)c2ccc(OC(F)(F)F)cc2)cnc1C(=O)NCC(O)COCC1CC1 (stereo not shown)', 'CFTR-S549N (Homo sapiens, UniProt P13569, S549N)', 6.25),
  ('Nc1cc(S(=O)(=O)c2ccc(OC(F)(F)F)cc2)cnc1C(=O)Nc1cc[nH]n1', 'CFTR-S549N (Homo sapiens, UniProt P13569, S549N)', 7.04),
  ('COCC(O)CNC(=O)c1ncc(S(=O)(=O)c2ccc(OC(F)(F)F)cc2)cc1N (stereo not shown)', 'CFTR-S549N (Homo sapiens, UniProt P13569, S549N)', 6.08),
  ('Nc1cc(S(=O)(=O)c2ccccc2OC(F)(F)F)cnc1C(=O)N1CC(F)(F)C1', 'CFTR-S549N (Homo sapiens, UniProt P13569, S549N)', 6.94);

(1) CC(C)(O)CNC(=O)c1ncc(S(=O)(=O)c2ccc(OC(F)(F)F)cc2)cc1N
(2) Nc1cc(S(=O)(=O)c2ccc(OC(F)(F)F)cc2)cnc1C(=O)NCCO
Inquiry: Between 1 and 2 , which one shows the smaller pEC50 number? Answer by stating the label of the chosen item.
Reply text: 2

(1) COC[C@H](O)CNC(=O)c1ncc(S(=O)(=O)c2ccccc2OC(F)(F)F)cc1N
(2) Nc1cc(S(=O)(=O)c2ccc(OC(F)(F)F)cc2)cnc1C(=O)N[C@@H]1COC[C@H]1O (racemic)
Inquiry: Which shows the larger pEC50 value: 1 or 2 ? Answer by stating the label of the chosen item.
Reply text: 1

(A) Nc1cc(S(=O)(=O)c2ccc(F)cc2)c(-c2ccc(F)cc2)nc1C(=O)NC[C@@H](O)C(F)(F)F
(B) C[C@H](O)CNC(=O)c1ncc(S(=O)(=O)c2ccccc2OC(F)(F)F)cc1N
(C) Nc1cc(S(=O)(=O)c2ccc(C(F)(F)F)cc2)cnc1C(=O)NCC(F)(F)CO
(D) Nc1cc(S(=O)(=O)c2ccc(C(F)(F)F)cc2)cnc1C(=O)NCCO
Inquiry: Ordering: ascending pEC50. Give me the labels in the order the question wants.
Reply text: C, D, B, A

---

# tested_target: CFTR-S549N (Homo sapiens, UniProt P13569, S549N)
# Construct: expressed in transfected cells
# assay_comment: YFP-halide influx assay for the CFTR-S549N
# Format: cell-based
# Parameters: concentration or dose not given beside the values
parameter: % Activation (%)

Record excerpt, results attached:
INSERT INTO measurements (molecule, tested_target, value_observed) VALUES
  ('Nc1cc(S(=O)(=O)c2ccc(OC(F)(F)F)cc2)cnc1C(=O)N1CC(O)C1', 'CFTR-S549N (Homo sapiens, UniProt P13569, S549N)', 91.7),
  ('Nc1cc(S(=O)(=O)c2ccc(F)cc2)cnc1C(=O)NC[C@@H](O)C(F)(F)F', 'CFTR-S549N (Homo sapiens, UniProt P13569, S549N)', 92.9),
  ('C[C@H](O)CNC(=O)c1ncc(S(=O)(=O)c2ccc(C(F)(F)F)cc2)cc1N', 'CFTR-S549N (Homo sapiens, UniProt P13569, S549N)', 103.0),
  ('Nc1cc(S(=O)(=O)c2ccc(C(F)(F)F)cc2)cnc1C(=O)N1CC(OCC(F)F)C1', 'CFTR-S549N (Homo sapiens, UniProt P13569, S549N)', 88.2),
  ('Nc1cc(S(=O)(=O)c2ccc(OC(F)(F)F)cc2)cnc1C(=O)N1CC(O)(C(F)(F)F)C1', 'CFTR-S549N (Homo sapiens, UniProt P13569, S549N)', 88.09);

(P) CC(O)(CNC(=O)c1ncc(S(=O)(=O)c2ccc(OC(F)(F)F)cc2)cc1N)C(F)(F)F (centres unmarked)
(Q) CC(C)(C)C(O)CNC(=O)c1ncc(S(=O)(=O)c2ccc(OC(F)(F)F)cc2)cc1N (centres unmarked)
Inquiry: Between P and Q , which one shows the smaller % Activation number? Answer by stating the label of the chosen item.
Reply text: P

---

# tested_target: CFTR ΔF508 mutant (Homo sapiens, UniProt P13569, DEL508-508)
# Construct: expressed in transfected cells; host or cells: CFBE41o- cells, adenoviral transduction
# assay_comment: YFP-halide influx assay for the CFTR-ΔF508 mutation (CFBE41o- cells)
# Type: cell-based
# condition_details: forskolin 10.67 μM
# Experimental: The YFP halide influx assay measured the functionality of the cystic fibrosis Transmembrane Conductance regulator (CFTR) channels in the cystic fibrosis bronchial epithelium cell line CFBE41o-. The assay was used to evaluate the capacity of compounds to increase the open probability of existing CFTR channels in the membrane. […] The I-induced quenching of fluorescence was recorded on an immediately after injection of iodide for 2 minutes on an FDSS/μCell (Hamamatsu). […]
parameter: % Activation (%)

INSERT INTO results (molecule, parameter, value_observed) VALUES
  ('Nc1cc(S(=O)(=O)c2ccc(OC(F)(F)F)cc2)cnc1C(=O)NCC(O)COCC1CC1 (stereo not shown)', '% Activation', 106.2),
  ('CC(C)OC[C@@H](O)CNC(=O)c1ncc(S(=O)(=O)c2ccc(C(F)(F)F)cc2)cc1N', '% Activation', 111.5),
  ('Nc1cc(S(=O)(=O)c2ccc(C(F)(F)F)cc2F)cnc1C(=O)NCC(O)COCC(F)(F)F (stereo not shown)', '% Activation', 115.3);

(A) C[C@H](O)CNC(=O)c1ncc(S(=O)(=O)N2CCC[C@@H]2C)cc1N
(B) CN1CCC(O)(CNC(=O)c2ncc(S(=O)(=O)c3ccc(OC(F)(F)F)cc3)cc2N)CC1
(C) Nc1cc(S(=O)(=O)c2ccc(C(F)(F)F)cc2)cnc1C(=O)N[C@@H]1COCC[C@@H]1O [Compound 235]
Inquiry: Put the items in sequence by % Activation, from largest down. Give me the labels in the order the question wants.
Reply text: A, C, B
(A: 105.0%, C: 58.5%, B: 14.8%)

(A) CC(O)(CNC(=O)c1ncc(S(=O)(=O)c2ccc(OC(F)(F)F)cc2)cc1N)C(F)(F)F (stereo not shown)
(B) Nc1cc(S(=O)(=O)c2ccc(C(F)(F)F)cc2)cnc1C(=O)N1CCC[C@@H]1CO
Inquiry: Which shows the larger % Activation value: A or B ? Answer by stating the label of the chosen item.
Reply text: A
(A: 104.5%, B: 44.9%)
